Reported remaining target (mRNA or protein) (fraction of control) values for a set of sequences
# Target: IL1R1; also: test concentration or dose not given here
# Condition parameters: ASO
These antisense oligonucleotides have a phosphorothioate backbone; sugars and methylation of C are not fully specified.
Please give only the number in your answer, with no unit.

Reference set (3 entries):
> print(dat)
        sequence.record  observed.value
1  AGTAACACTTTCATATTCTT            0.75
2  TGTGTCCTGCAATCGGTGGC             0.1
3  CCTCCACCCACGCTTATCCA            0.29

What the record says about "CGTGCCAGTGTGGAGTGAGG" : remaining target (mRNA or protein) (fraction of control) is 0.23

What the record says about "GCAAAGCGGGCCCAGGAGAA" : remaining target (mRNA or protein) (fraction of control) is 0.3

What the record says about "CCCTTCCATAAATGAACAGC" : remaining target (mRNA or protein) (fraction of control) is 0.75

What the record says about "GAAACAAATAAGTCTGAGTA" : remaining target (mRNA or protein) (fraction of control) is 0.75

What the record says about "AGTCAAAGGAAGTTCACGGG" : remaining target (mRNA or protein) (fraction of control) is 0.5

What the record says about "TCGGCTCCTCCCGGCCGCGC" : remaining target (mRNA or protein) (fraction of control) is 0.75

What the record says about "AACTTCTCCATGCTACCCGA" : remaining target (mRNA or protein) (fraction of control) is 0.75
